Each item that follows carries a reported binding signal.
- target: OsWRKY34 (Oryza sativa, UniProt Q0JBA9 1-250)
- Sequence (Q0JBA9 entry or part of it): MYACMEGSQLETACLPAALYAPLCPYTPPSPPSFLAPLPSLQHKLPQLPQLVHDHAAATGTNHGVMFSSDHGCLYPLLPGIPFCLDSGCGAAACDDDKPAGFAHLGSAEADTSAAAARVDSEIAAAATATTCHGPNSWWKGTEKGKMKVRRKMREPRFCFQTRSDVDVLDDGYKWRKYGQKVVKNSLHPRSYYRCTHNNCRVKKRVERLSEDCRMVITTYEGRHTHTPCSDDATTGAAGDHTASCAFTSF
- assay-explanation: protein-binding microarray (RPBM); PBS, 2% BSA, 51.3 ng/ul salmon testes DNA, 50 uM zinc acetate, 200 nM TF, 25 C, 1 h; high values mean tight binding
- experimental-parameters: protein: recombinant; tags: N-terminal polyhistidine and DsRed monomer fusion (pET32a); label: CyDye5-dUTP incorporated in the synthesized complementary strand; 3' TTTTT single-stranded linker to array surface; dsDNA, one strand shown
Over roughly 68,000 sequences, “fluorescence intensity (a.u.)” has its median near 9,100; the highest 2% begin near 16,000. The entries come from a sample that favours the highest values as a whole.

# get_value(readout='binding signal', item= "ATTTTTACCCTTCTCCTGTGTTTTTGTTGCTGTGATTCAACGGAGTCACCTAGTGCAG" )
8570 fluorescence intensity (a.u.)

Note, next up: "GCCGTGGTGGTGTGGGGATCGTGTTGTGGCGGCGGATTGGCGGAGTCACCTAGTGCAG"
8690 fluorescence intensity (a.u.)

Note, next up: "TTTATAGATGGGGAAGGGGTGGCAACTAGAGACGCGACGGCGGAGTCACCTAGTGCAG"
9070 fluorescence intensity (a.u.)

Note, next up: "GTCGGCGTCGGCGTCGGCGTCGGCGGGCGGGAGGCGGGAGCGGAGTCACCTAGTGCAG"
8650 fluorescence intensity (a.u.)

More entries:
# get_value(readout='binding signal', item= "GGGCGGGCGGGCTCGAGGTTGTGGTGGGGCGTGTGGCAGGCGGAGTCACCTAGTGCAG" )
18200 fluorescence intensity (a.u.)

Note, next up: "AAGATTTGCTGGGAGGGTGGGGTGGGGATTAGTCCCTAAACGGAGTCACCTAGTGCAG"
24500 fluorescence intensity (a.u.)
